Test system: Asian tiger mosquito
ASSAY NOTES: Evaluation of inhibition of seeking behavior of mosquito for human arm (landing count)
Format: in vivo
Design: tested at 0.1 vol %
TEST CONTEXT: sample 0.1 vol % in ethanol on breathable sheet on arm; landings in 5 minutes vs ethanol only; female mosquitoes
Categories are assigned from the measured Inhibitory rate (%) using these intervals: range 1 (below 60%), range 2 (60% to below 90%), range 3 (90% or more)

# COMPOUND, SYSTEM TESTED, CLASS ASSIGNMENT
data = [
    ("C=CC(O)CCCCC (stereo not drawn)", "Asian tiger mosquito", "range 2"),
]

Exam item: Assign a bin to CCCCC(CC)C(=O)OCC (stereo not drawn) [Ethyl 2-ethylhexanoate, ethyl 2-ethylhexanoate]
Marked response: range 2

Exam item: Assign a bin to CCCCCCCCCCO
Marked response: range 3

---

Test system: Asian tiger mosquito
ASSAY NOTES: Evaluation of inhibition of seeking behavior of mosquito for human arm (landing count)
Format: in vivo
Parameters: tested at 0.1 vol %
TEST CONTEXT: sample 0.1 vol % in ethanol on breathable sheet on arm; landings in 5 minutes vs ethanol only; female mosquitoes
Here, each record is paired with measured Inhibitory rate (%) data.
Could you give me the number in %? Just the number is fine.

# MOLECULE, SYSTEM TESTED, Inhibitory rate (%)
records = [
    ("CC1=CC(C)C(CO)C(C)C1 (stereo not drawn)", "Asian tiger mosquito", 89),
    ("C=CCCCCCCCCO", "Asian tiger mosquito", 93.5),
    ("CCOC(=O)C(C)C1CCCCC1 (stereo not drawn) [Ethyl 2-cyclohexylpropionate, ethyl 2-cyclohexylpropionate]", "Asian tiger mosquito", 58),
]

Inhibitory rate (%) reading for CCCc1ccc(O)c(OC)c1 : 100

Inhibitory rate (%) reading for CCC/C=C/COC(C)=O [trans-2-Hexenyl acetate, trans-2-hexenyl acetate] : 54

Inhibitory rate (%) reading for CCOC(=O)Cc1ccccc1 [Ethyl phenylacetate, ethyl phenylacetate] : 38.5
